Provenance of the data: patent US10688093B2

Assign IC50 to each entry below.
SYSTEM: full-length recombinant human FYN A (Homo sapiens (Human))
TEST_SUMMARY: ADP-Glo Kinase Assay of FYN kinase inhibition
Assay type: biochemical
CONDITION_PARAMETERS: primary screen, initial compounds
Field: value (include unit after the number)

[in] Could you share which IC50 value was measured for COc1cc(-c2cnc3ccc(NC4CCOCC4)nn23)cc(OC)c1OC [229_0242_0087] ?
[out] 0.617 µM

[in] Bench note: what IC50 did COc1cccc(-c2ccc3ncc(-c4ccc(OC)c(OC)c4)n3n2)c1 [Compound 342] show?
[out] 0.952 µM

[in] Could you tell me which IC50 is on file for COc1ccc(-c2cnc3sc(NCc4cccnc4)nn23)cn1 [Compound 560] ?
[out] 2.94 µM

[in] Record request: IC50 value, item COc1cc(-c2ccc3ncc(-c4ccc(CO)cc4)n3n2)ccc1O [Compound 299]
[out] 0.223 µM

[in] Give its IC50 value. Item: CC(=O)c1cccc(-c2ccc3ncc(-c4cccc(C(C)=O)c4)n3n2)c1 [Compound 437]
[out] 0.582 µM

###

Please go through the items and note down their pIC50.
SYSTEM: full-length recombinant human FYN A (Homo sapiens (Human), UniProt P06241)
Sequence (P06241 whole entry): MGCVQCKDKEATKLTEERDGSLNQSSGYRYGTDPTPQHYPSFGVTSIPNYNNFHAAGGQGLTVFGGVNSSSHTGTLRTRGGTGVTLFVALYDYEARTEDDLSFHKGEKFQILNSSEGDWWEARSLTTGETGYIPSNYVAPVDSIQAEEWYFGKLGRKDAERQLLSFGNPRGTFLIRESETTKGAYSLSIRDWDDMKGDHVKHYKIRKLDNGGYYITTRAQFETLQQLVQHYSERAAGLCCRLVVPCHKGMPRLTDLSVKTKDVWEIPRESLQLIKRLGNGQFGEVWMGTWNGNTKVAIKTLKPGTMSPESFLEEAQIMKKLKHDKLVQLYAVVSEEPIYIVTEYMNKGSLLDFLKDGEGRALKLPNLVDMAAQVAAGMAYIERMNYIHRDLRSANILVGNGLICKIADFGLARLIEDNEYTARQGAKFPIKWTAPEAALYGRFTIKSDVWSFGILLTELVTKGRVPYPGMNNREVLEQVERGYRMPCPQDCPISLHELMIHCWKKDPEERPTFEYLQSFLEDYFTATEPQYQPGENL
TEST_SUMMARY: ADP-Glo Kinase Assay of FYN kinase inhibition
Format: biochemical
CONDITION_PARAMETERS: primary screen, initial compounds
API: returns pIC50 as number; meaning -log10 of concentration in mol/L.

[in] Form field: pIC50 recorded for "Cn1cc(-c2cn3c(-c4cccc(O)c4)cnc3cn2)cn1" with full-length recombinant human FYN A (Homo sapiens (Human), UniProt P06241) (enter value)
[out] 5.56

[in] Could you share what pIC50 was measured for "COc1cccc(-c2cnn3ccc(Nc4ccc(OC)nc4)nc23)c1" , tested on full-length recombinant human FYN A (Homo sapiens (Human), UniProt P06241)?
[out] 5.27

[in] Please provide the recorded pIC50 for "COc1cc(-c2cnc3ccc(-c4cccc(CO)c4)nn23)ccc1O" , tested on full-length recombinant human FYN A (Homo sapiens (Human), UniProt P06241).
[out] 6.99

[in] Record lookup: for full-length recombinant human FYN A (Homo sapiens (Human), UniProt P06241), what pIC50 belongs to "CS(=O)(=O)Nc1cccc(-c2cn3c(-c4ccsc4)cnc3cn2)c1" ?
[out] 5.48

[in] # query: pIC50 | item "NC(=O)c1ccc(-c2ccc3ncc(-c4cccs4)n3n2)cc1" | system: full-length recombinant human FYN A (Homo sapiens (Human), UniProt P06241)
[out] 6.02

[in] Please state recorded pIC50 (tested on full-length recombinant human FYN A (Homo sapiens (Human), UniProt P06241)) of "CNc1ccc2ncc(-c3ccc(OC)nc3)n2n1"
[out] 5.35

[in] Look up pIC50 with full-length recombinant human FYN A (Homo sapiens (Human), UniProt P06241) for this compound: "c1cc(-c2n[nH]c3nccc(-c4ccoc4)c23)ccn1"
[out] 4.69

[in] Return pIC50 measured with full-length recombinant human FYN A (Homo sapiens (Human), UniProt P06241) given this compound: "COc1ccccc1-c1ccc2ncc(-c3cccc(NC(C)=O)c3)n2n1"
[out] 5.54

[in] Form: Entry = "CN(C)C(=O)c1cccc(-c2cnc3sc(NCc4ccco4)nn23)c1" | System = full-length recombinant human FYN A (Homo sapiens (Human), UniProt P06241) | pIC50 = ____
[out] 5.61
